// reported melting point for each item listed
measuredParameter: melting point

> print(dat)
                                   molecule  measuredparameter               resultvalue
1  O=[N+]([O-])c1ccc2c(c1)-c1ccc(N3CCN4CCC3CC4)cc1S2(=O)=O      melting point      291 to 294 °C (dec.)
2  CN1CC2CCC(C1)N2c1ccc2c(c1)S(=O)(=O)c1c(F)cccc1-2 [Compound 14b]      melting point    254.5 to 256 °C (dec.)
3  O=S1(=O)c2ccccc2-c2ccc(N3CCN4CCC3CC4)cc21      melting point    238.5 to 240 °C (dec.)
4  CN1C2CCC1CN(c1ccc3c(c1)S(=O)(=O)c1c(F)cccc1-3)C2 [Compound 13b]      melting point  260.5 to 262.5 °C (dec.)
5  CN1C2CCCC1CN(c1ccc3c(c1)S(=O)(=O)c1c(F)cccc1-3)C2 [Compound 12b]      melting point      264 to 272 °C (dec.)
6  CN1C2CCCC1CN(c1ccc3c(c1)S(=O)(=O)c1ccc(F)cc1-3)C2 [Compound 12a]      melting point      214 to 217 °C (dec.)
7  O=S1(=O)c2ccccc2-c2cc(F)c(N3CCN4CCC3CC4)cc21 [Compound 10c]      melting point      305 to 309 °C (dec.)
